Study Target: scTOP1 catalytically inactive variant (Saccharomyces cerevisiae)
Sequence: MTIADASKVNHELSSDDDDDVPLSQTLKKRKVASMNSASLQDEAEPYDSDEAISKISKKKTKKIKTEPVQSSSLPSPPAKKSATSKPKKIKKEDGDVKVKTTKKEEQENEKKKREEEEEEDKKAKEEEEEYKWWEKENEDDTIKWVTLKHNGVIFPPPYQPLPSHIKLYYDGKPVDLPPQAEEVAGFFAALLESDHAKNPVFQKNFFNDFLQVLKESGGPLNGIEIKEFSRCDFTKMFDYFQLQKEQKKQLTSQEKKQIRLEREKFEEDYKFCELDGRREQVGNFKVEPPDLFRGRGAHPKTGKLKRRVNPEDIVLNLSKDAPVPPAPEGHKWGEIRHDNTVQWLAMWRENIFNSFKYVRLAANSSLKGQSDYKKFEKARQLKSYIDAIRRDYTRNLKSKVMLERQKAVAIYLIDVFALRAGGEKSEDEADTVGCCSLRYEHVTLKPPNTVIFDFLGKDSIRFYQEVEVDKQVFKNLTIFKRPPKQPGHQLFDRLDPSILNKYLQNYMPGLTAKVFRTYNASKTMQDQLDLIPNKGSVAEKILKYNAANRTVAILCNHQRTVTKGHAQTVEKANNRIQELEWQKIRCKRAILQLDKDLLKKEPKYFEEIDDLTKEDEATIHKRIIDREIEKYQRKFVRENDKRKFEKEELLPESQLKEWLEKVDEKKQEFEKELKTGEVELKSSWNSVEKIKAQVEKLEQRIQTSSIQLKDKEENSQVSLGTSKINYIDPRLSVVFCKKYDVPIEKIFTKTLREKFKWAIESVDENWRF
Assay Notes: fluorescence anisotropy
Condition Label: single ribonucleotide rG at position 16 of strand 1; all else DNA; 20 mM Tris pH 8, 66 mM NaCl, 1 mM DTT, 2% glycerol, 0.5 nM DNA, 0-60 nM TOP1, 10 min at 37 C; errors are SEM of 3-5 experiments
Experimental Readout: Kd (nM)
Please give a number only; it is taken to be in nM.

Q: GET /values?readout=Kd&item= ACTCGTCACGAGAGAGATGCCACGGTATTTCAAA (double strand) [Substrate D (rG upstream of cleavage site)]
Result: 6
